Task for the reader: assign each of the following compounds its reported composite z-score.
Biological target: Torsin-1A (Homo sapiens) (UniProt O14656)
Sequence (O14656 whole entry, looked up): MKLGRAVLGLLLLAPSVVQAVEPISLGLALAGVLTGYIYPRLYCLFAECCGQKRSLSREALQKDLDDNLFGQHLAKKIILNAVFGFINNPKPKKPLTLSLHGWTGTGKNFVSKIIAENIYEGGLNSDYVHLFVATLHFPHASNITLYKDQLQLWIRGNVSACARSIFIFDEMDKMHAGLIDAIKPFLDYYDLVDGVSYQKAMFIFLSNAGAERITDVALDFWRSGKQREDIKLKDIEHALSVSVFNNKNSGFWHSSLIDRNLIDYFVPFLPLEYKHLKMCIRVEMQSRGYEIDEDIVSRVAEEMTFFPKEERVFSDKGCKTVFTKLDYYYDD
Assay: small-molecule binders of mutant TOR1A in lysate, primary screen, cell lysate, small-molecule microarray, COS7 lysate, 635/667 nm fluorescence (AID 1150);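 further: score pools 667 nm emission and signal to noise measuring lysate protein binding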
Details: COS7 hTOR1A mutant lysate, 635 nm fluorescence, higher = more signal
Numbers only.

Some solved entries appear below for comparison.
O=C1OCC=C[C@H]2OC34C=CCN(c5ccc6ccccc6c5)C(=O)[C@H]3N(CCCCCCO)C(=O)[C@@H]4[C@@H]12 (some centres undefined) : -1.69
O=C1OCCC/C=C\[C@H]2OC34C=CCN(c5ccc6ccccc6c5)C(=O)[C@H]3N(CCCCCCO)C(=O)[C@@H]4C12 (some centres undefined) : -1.2
COc1ccc(CCN2C(=O)[C@@]3(Cc4ccccc42)c2ccccc2C(=O)N(Cc2ccccc2C(F)(F)F)[C@H]3c2ccc(CO)cc2)cc1 : 0.087

Then this compound:
Data request: Look at this compound and give its reported composite z-score. CCOC(=O)C1=CCC(c2ccccc2)N(S(=O)(=O)CC[Si](C)(C)C)C1 (centres undefined)
Data returned: 0.673

---

Task for the reader: assign each of the following compounds its reported composite z-score.
Experiment: binders of probe aHhip on microarray, primary screen, stem cell growth factor project, biochemical, small-molecule microarray, fluorescence 635/667 (AID 1087);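 further: score merges spot fluorescence at 667nm with spot signal to noise ratio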
Conditions: higher = more signal
Answers are plain numbers.

Some solved entries appear below for comparison.
CC(C)C[C@@H]1NC(=O)[C@H]2C[C@@H](C(=O)NCCCCCCN(C)C)[C@@H](c3ccc(O)cc3)N2C1=O : 0.0274
CN(C)CCCC[C@@H]1NC(=O)[C@H]2C[C@@H](C(=O)NCCCCCNC(=O)CS)[C@@H](c3cccc(OCCO)c3)N2C1=O : -0.305
CC(C)N1C(=O)c2ccccc2[C@](C)(C(=O)NCc2ccccc2)[C@@H]1c1ccc(CO)cc1 : -0.0994
COc1ccc(CCNC(=O)[C@@]2(Sc3ccc(C)cc3)CC(=O)N(C3CCCCC3)[C@@H]2c2ccc(CO)cc2I)cc1 : -0.0237
COc1ccc([Si](C)(C)[C@H]2[C@H](CCO)O[C@@]3(C(=O)N(C)c4c(Br)cc(C)cc43)[C@@H]2C)cc1 : -0.196

Hi! Can you tell me composite z-score for each of these compounds?
1. COC(=O)[C@@]1(Cc2ccccc2)[C@H]2c3cc(C(=O)N4CCCC4)n(Cc4nc5ccccc5[nH]4)c3C[C@H]2CN1C(=O)c1ccccc1
2. C=CCOC(=O)[C@H]1[C@@H]2C(=O)O[C@@H](c3ccccc3)[C@@H](c3ccccc3)N2[C@@H](c2ccc(OCCOC(=O)[C@@H]3C[C@@H]4C(=O)N[C@@H](CCCC[N+](C)(C)C)C(=O)N4[C@@H]3c3ccc(O)cc3)cc2)[C@]12C(=O)Nc1ccccc12
3. COCCOC(=O)N1C(=O)[C@@]2(c3ccccc31)[C@H](c1ccccc1OCCO)N1[C@H](c3ccccc3)[C@H](c3ccccc3)OC(=O)[C@H]1[C@@H]2C(=O)Nc1nc2ccccc2s1
4. C=C(COC)/C(=C/C[C@@H](OC(C)=O)c1ccc(OCCO)cc1)c1cc(C(=O)OC)ccc1OC
5. O=C1c2ccccc2[C@](Cc2ccccc2I)(C(=O)NC2CC2)[C@H](c2ccc(CO)cc2)N1C1CCCCC1
6. COC(=O)[C@@]1(Cc2ccccc2)[C@H]2c3cc(C(=O)N4CCCC4)n(CC4CC4)c3C[C@H]2CN1C(=O)c1ccccc1
7. COc1ccc([Si](C)(C)[C@H]2[C@H](CC(=O)N3CCC[C@H]3CO)O[C@@]3(C(=O)N(Cc4cccc(N5C(=O)c6cccc7cccc5c67)c4)c4ccccc43)[C@@H]2C)cc1
8. Cc1ccc(S[C@]2(C(=O)NCC(F)(F)F)CC(=O)N(C(C)C)[C@@H]2c2ccc(CO)cc2I)cc1

Data returned:
[0.507, -0.0618, 0.0274, 0.107, -0.926, 0.337, 0.166, -0.374]
